# reported pKd; entries follow
# ASSAYED SYSTEM: T1, EsCas13d, nuclease-dead (Eubacterium siraeum, UniProt B0MS50, R295A;H300A;R849A;H854A)
# T1 sequence: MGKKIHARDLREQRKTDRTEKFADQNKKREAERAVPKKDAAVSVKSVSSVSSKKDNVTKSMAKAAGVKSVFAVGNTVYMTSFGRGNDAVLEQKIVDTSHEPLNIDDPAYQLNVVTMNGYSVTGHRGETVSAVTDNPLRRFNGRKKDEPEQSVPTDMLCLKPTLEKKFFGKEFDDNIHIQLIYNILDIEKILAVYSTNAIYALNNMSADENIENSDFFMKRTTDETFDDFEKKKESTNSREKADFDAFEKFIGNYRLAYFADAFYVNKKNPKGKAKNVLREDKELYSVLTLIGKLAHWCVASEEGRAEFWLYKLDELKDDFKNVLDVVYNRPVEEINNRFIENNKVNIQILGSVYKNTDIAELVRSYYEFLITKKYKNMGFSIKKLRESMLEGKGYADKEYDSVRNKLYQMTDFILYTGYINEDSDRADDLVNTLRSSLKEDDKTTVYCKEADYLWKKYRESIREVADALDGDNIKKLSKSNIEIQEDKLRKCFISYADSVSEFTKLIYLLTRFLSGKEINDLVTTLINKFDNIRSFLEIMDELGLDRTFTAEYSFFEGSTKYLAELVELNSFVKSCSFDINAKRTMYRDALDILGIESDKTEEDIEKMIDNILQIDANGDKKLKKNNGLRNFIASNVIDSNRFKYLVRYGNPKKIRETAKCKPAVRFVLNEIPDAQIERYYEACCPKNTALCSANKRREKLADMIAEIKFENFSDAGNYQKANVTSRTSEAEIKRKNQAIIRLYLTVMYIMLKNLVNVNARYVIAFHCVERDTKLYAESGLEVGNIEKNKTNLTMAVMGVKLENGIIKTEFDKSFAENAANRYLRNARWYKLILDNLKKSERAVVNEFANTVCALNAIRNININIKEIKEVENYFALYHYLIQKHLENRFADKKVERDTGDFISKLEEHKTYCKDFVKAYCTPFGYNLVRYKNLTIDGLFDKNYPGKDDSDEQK
# ASSAY NAME: crRNA (strand 1, pre-loaded); Mg2+; 40 mM Tris-HCl pH 7.5, 150 mM NaCl, 6 mM MgCl2, 1 mM DTT, 0.1% Tween-20, 0.2 mg/ml BSA; 25 C; 10 min per concentration, then washed
# REPORTED CONDITIONS: tags: His6-TwinStrep-SUMO cleaved; N-terminal SNAP kept (SNAP-Surface 488); label: 3' end held by stalled T7 RNA polymerase
pKd: −log10 of the molar value.

BINDER	pKd
target 2 MT 5'PFS UGU 3'PFS CAG (mixed) RNA 1: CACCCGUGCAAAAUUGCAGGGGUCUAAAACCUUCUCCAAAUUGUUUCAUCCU RNA 2: GGGAAUGGAUCCACAUCUACGAAUUCUGUAGGAUGAAACAAUUUGGAGAAGCAGAGAUCGGAAGAGCACACGU	8.05
target 1 insU 3' of 13,insG 3' of 3 (mixed) RNA 1: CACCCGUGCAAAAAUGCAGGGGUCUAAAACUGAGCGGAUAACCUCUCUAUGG RNA 2: GGGAAUGGAUCCACAUCUACGAAUUCGUACCAUAGAGAGUGUUAUCCGCUGCACCGAGAUCGGAAGAGCACACGU	7.84
target 1 insU 3' of 14,insA 3' of 5 (mixed) RNA 1: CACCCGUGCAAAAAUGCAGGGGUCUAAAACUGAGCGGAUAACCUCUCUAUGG RNA 2: GGGAAUGGAUCCACAUCUACGAAUUCGUACCAUAGAGAUGGUUAUCCGACUCACCGAGAUCGGAAGAGCACACGU	7.54
target 1 complement block 3-12 (mixed) RNA 1: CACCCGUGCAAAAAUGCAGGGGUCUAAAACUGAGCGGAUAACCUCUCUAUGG RNA 2: GGGAAUGGAUCCACAUCUACGAAUUCGUACCAUAGAGAGCAAUAGGCGACACCGAGAUCGGAAGAGCACACGU	7.84
